Reported protein stability index is given for each of the following variants.
B1: TRIM35 (parent)
chain: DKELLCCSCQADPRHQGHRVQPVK

# Variants of: B1
# method-notes: protein stability index of a GFP-peptide fusion (GPS, HEK-293T) (PSI 1-6); higher = more stable;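 also: lentivirally expressed fusions sorted by FACS into six bins by GFP to DsRed ratio, PSI derived from sequencing read proportions per bin multiplied by bin number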
# measurement-setup: c terminus: a fixed tail appended
// return just the number, without any unit appended

Consider DKELLCCSCNADPRHQGHRVQPVK [Q10N] . Its measured protein stability index is 4.07

Consider DKELLCCSCQADPRHQGHRVQPVH [K24H] . Its measured protein stability index is 3.38

Consider DKELLCCSSQADPRHQGHRVQPVK [C9S] . Its measured protein stability index is 4.47

Consider DKELLCCSCQADFRHQGHRVQPVK [P13F] . Its measured protein stability index is 2.31

Consider DKELLCCSEQADPRHQGHRVQPVK [C9E] . Its measured protein stability index is 4.87

Consider DKELLCCSCQPDPRHQGHRVQPVK [A11P] . Its measured protein stability index is 3.87

Consider DKEMLCCSCQADPRHQGHRVQPVK [L4M] . Its measured protein stability index is 3.9
